Data origin, for the record: paper PMC8525948

test: In vitro release, USP dissolution apparatus 2, simulated gastric fluid pH 1.2
Format: physicochemical
settings: within 0.5 h / plateau at 0.5 h; CPT11 40 mg/g, inhibitors 80 mg/g
Counter-ions that a name gives are not always drawn.
property label: Dissolution from PC90C10P0 in simulated gastric acid solution (%)
Answers are plain numbers, in %.

// known answers, use as guide
molecule | observed value
CC1(C)[C@@H](O)CC[C@]2(C)[C@H]3C(=O)C=C4[C@@H]5C[C@@](C)(C(=O)O)CC[C@]5(C)CC[C@@]4(C)[C@]3(C)CC[C@@H]12 [GLA, glycyrrhetinic acid] | 100
CCc1c2c(nc3ccc(OC(=O)N4CCC(N5CCCCC5)CC4)cc13)-c1cc3c(c(=O)n1C2)COC(=O)[C@]3(O)CC [CPT11, Irinotecan hydrochloride] | 100

Continue with the molecule presented below.
State its Dissolution from PC90C10P0 in simulated gastric acid solution: CC1(C)[C@@H](O[C@H]2O[C@H](C(=O)O)[C@@H](O)[C@H](O)[C@H]2O[C@@H]2O[C@H](C(=O)O)[C@@H](O)[C@H](O)[C@H]2O)CC[C@]2(C)[C@H]3C(=O)C=C4[C@@H]5C[C@@](C)(C(=O)O)CC[C@]5(C)CC[C@@]4(C)[C@]3(C)CC[C@@H]12 [GA, glycyrrhizic acid] 100

###

test: Droplet size, PDI and appearance of nanoemulsions (LBSNENAs) after self-nanoemulsifying
Assay type: physicochemical
settings: PC90C10P0 loaded with the named substance at its solubility; 25 °C
Where a name gives a salt, the structure may show the parent alone.
Please respond with reported Mean droplet size of nanoemulsion after self-nanoemulsifying for every item in the list.
Give bare numbers, in nm.

Example cases with answers are listed next.
compound | measurement units | observed value
CC1(C)[C@@H](O)CC[C@]2(C)[C@H]3C(=O)C=C4[C@@H]5C[C@@](C)(C(=O)O)CC[C@]5(C)CC[C@@]4(C)[C@]3(C)CC[C@@H]12 [GLA, glycyrrhetinic acid] | nm | 143.5
O=c1cc(-c2ccccc2)oc2cc(O)c(O)c(O)c12 [BA, Baicalein] | nm | 171.0
CCc1c2c(nc3ccc(OC(=O)N4CCC(N5CCCCC5)CC4)cc13)-c1cc3c(c(=O)n1C2)COC(=O)[C@]3(O)CC [CPT11, Irinotecan hydrochloride] | nm | 157.3

Alright, here's another compound for you.
Provide one value: measured Mean droplet size of nanoemulsion after self-nanoemulsifying of CC1(C)[C@@H](O[C@H]2O[C@H](C(=O)O)[C@@H](O)[C@H](O)[C@H]2O[C@@H]2O[C@H](C(=O)O)[C@@H](O)[C@H](O)[C@H]2O)CC[C@]2(C)[C@H]3C(=O)C=C4[C@@H]5C[C@@](C)(C(=O)O)CC[C@]5(C)CC[C@@]4(C)[C@]3(C)CC[C@@H]12 [GA, glycyrrhizic acid] 102.1

###

test: Droplet size, PDI and appearance of nanoemulsions (LBSNENAs) after self-nanoemulsifying
Type: physicochemical
settings: PC90C10P0 loaded with the named substance at its solubility; 25 °C
Where a name gives a salt, the structure may show the parent alone.
property label: PDI of nanoemulsion after self-nanoemulsifying
Answers are plain numbers.

The following compounds each have a reported value; give each one's PDI of nanoemulsion after self-nanoemulsifying.
1. O=c1cc(-c2ccccc2)oc2cc(O)c(O)c(O)c12 [BA, Baicalein]
2. CCc1c2c(nc3ccc(OC(=O)N4CCC(N5CCCCC5)CC4)cc13)-c1cc3c(c(=O)n1C2)COC(=O)[C@]3(O)CC [CPT11, Irinotecan hydrochloride]
3. CC1(C)[C@@H](O)CC[C@]2(C)[C@H]3C(=O)C=C4[C@@H]5C[C@@](C)(C(=O)O)CC[C@]5(C)CC[C@@]4(C)[C@]3(C)CC[C@@H]12 [GLA, glycyrrhetinic acid]
4. CC1(C)[C@@H](O[C@H]2O[C@H](C(=O)O)[C@@H](O)[C@H](O)[C@H]2O[C@@H]2O[C@H](C(=O)O)[C@@H](O)[C@H](O)[C@H]2O)CC[C@]2(C)[C@H]3C(=O)C=C4[C@@H]5C[C@@](C)(C(=O)O)CC[C@]5(C)CC[C@@]4(C)[C@]3(C)CC[C@@H]12 [GA, glycyrrhizic acid]

1. 0.863
2. 0.665
3. 0.559
4. 0.602

###

test: in vivo
settings: New Zealand white, rabbit, in vivo, iv, 4 mg/kg
Structures can show the parent of a compound that is named as a salt.
property label: AUC(0-inf) (ng·h/mL)
One number for each entry, in ng·h/mL.

Supply reported AUC(0-inf) belonging to this compound: CCc1c2c(nc3ccc(OC(=O)N4CCC(N5CCCCC5)CC4)cc13)-c1cc3c(c(=O)n1C2)COC(=O)[C@]3(O)CC [CPT11, Irinotecan hydrochloride] 287

###

test: in vivo
settings: New Zealand white, rabbit, in vivo, iv, 4 mg/kg
Procedure: Plasma samples were stored at −80 °C before the high-performance liquid chromatographic (HPLC) analysis as described below. […] The half-life (T1/2) was calculated using the following equation: T1/2 = ln2/Ke. The area under the concentration-time curve from beginning to the last time point (AUC0→last) was calculated using the trapezoidal method. Summation of AUC0→last and the concentration at the last measured point divided by Ke yielded AUC0→∞. […]
Counter-ions that a name gives are not always drawn.
property label: AUC(0-t)
Please don't drop the unit; write it after the number.

Read the entry CCc1c2c(nc3ccc(OC(=O)N4CCC(N5CCCCC5)CC4)cc13)-c1cc3c(c(=O)n1C2)COC(=O)[C@]3(O)CC [CPT11, Irinotecan hydrochloride] and write its reported AUC(0-t). 287 ng·h/mL

###

test: Solubility (loading amount) in 1 g of optimal LBSNENP PC90C10P0
Where a name gives a salt, the structure may show the parent alone.
property label: Solubility (loading amount) in 1 g of PC90C10P0 (mg/g)
One number for each entry, in mg/g.

The examples below pair each entry with its known result.
molecule | observed value
CCc1c2c(nc3ccc(OC(=O)N4CCC(N5CCCCC5)CC4)cc13)-c1cc3c(c(=O)n1C2)COC(=O)[C@]3(O)CC [CPT11, Irinotecan hydrochloride] | 40
O=c1cc(-c2ccccc2)oc2cc(O)c(O)c(O)c12 | 80
CC1(C)[C@@H](O[C@H]2O[C@H](C(=O)O)[C@@H](O)[C@H](O)[C@H]2O[C@@H]2O[C@H](C(=O)O)[C@@H](O)[C@H](O)[C@H]2O)CC[C@]2(C)[C@H]3C(=O)C=C4[C@@H]5C[C@@](C)(C(=O)O)CC[C@]5(C)CC[C@@]4(C)[C@]3(C)CC[C@@H]12 | 200

Find the measured Solubility (loading amount) in 1 g of PC90C10P0 of `CC1(C)[C@@H](O)CC[C@]2(C)[C@H]3C(=O)C=C4[C@@H]5C[C@@](C)(C(=O)O)CC[C@]5(C)CC[C@@]4(C)[C@]3(C)CC[C@@H]12` and report it. 80
